Consider the following compounds; for each one, report its TGI.
System: NCI/ADR-RES ovarian
Assay Procedure: NCI tumour cell line growth inhibition, 48 h

Value of TGI reported for the compound "NC(=O)C(=O)c1ncn(Cc2ccccc2)c1N" is > 100 µM

Value of TGI reported for the compound "Oc1cc(O)c2ccc(-c3ccc(O)c(O)c3)[o+]c2c1" is > 100 µM

Value of TGI reported for the compound "COC(=O)[C@@H](C)C[C@H](Cc1cn(C)c2ccccc12)NC(=O)c1csc([C@@H](C[C@H](C(C)C)N(C)C(=O)[C@@H](NC(=O)[C@H]2CCCCN2C)C(C)C)OC(C)=O)n1" is > 16.7 µM

Value of TGI reported for the compound "O=C1/C(=C\c2ccc(F)cc2)CN(C(=O)c2ccccc2)C/C1=C\c1ccc(F)cc1" is > 100 µM

Value of TGI reported for the compound CC(C)C1OC(N)=C(C#N)C1(C#N)C#N (stereo not given) is > 100 µM

Value of TGI reported for the compound "CC1=NN(C(=O)c2ccccc2O)C(=O)/C1=C/c1cccc(O)c1" is > 100 µM

Value of TGI reported for the compound "CC1=NN(c2nc(N)nc(CBr)n2)C(C)(C)C1" is 45.4 µM

Value of TGI reported for the compound "COc1c(O)c(OC)c2oc(-c3ccc(O)c(O)c3)c(OC)c(=O)c2c1O" is > 100 µM

Value of TGI reported for the compound "CCOC(=O)c1ccc(Nc2sc(C(=O)c3ccc(Br)cc3)c(N)c2C#N)cc1" is > 100 µM

Value of TGI reported for the compound "Cc1ccc(Cl)cc1Nc1nc(C(F)(F)F)ccc1C(=O)N/N=C/c1cccnc1" is 20.3 µM

Value of TGI reported for the compound "Nc1ccc2nc3c(nc2c1)C(=O)c1ccccc1-3" is > 100 µM

Value of TGI reported for the compound C=C1CCCC2[C@](C)(CC3=C(Cl)C(=O)C=C(OC)C3=O)C(C)CC[C@]12C (stereo not given in full) is 33.2 µM

Value of TGI reported for the compound Nc1nc2c(ncn2C2CCC(CO)O2)c(=O)n1C(=O)c1ccccc1 (stereo not given) is > 100 µM

Value of TGI reported for the compound "CSc1ccc(-c2ccccc(=O)c2O)cc1" is 2.12 µM

Value of TGI reported for the compound "S=C(NNC1=NCCCCN1)Nc1ccc(Cl)cc1" is > 100 µM

Value of TGI reported for the compound c1ccc(N2N=C(c3cccc(Nc4ccncc4)c3)CC2c2ccc3c(c2)OCO3)cc1 (stereo not given) is 3.6 µM

Value of TGI reported for the compound N#CC(N)c1ccc(OCCCCCCCCCCOc2ccc(C(N)C#N)cc2)cc1 (stereo not given) is > 100 µM

Value of TGI reported for the compound "COc1cc2c(cc1C[C@H]1[C@@H]3C[C@H]4c5c(c6ccccc6n5C)C[C@@H]([C@@H]3CO[C@]1(C)OC(C)=O)N4C)c1c(n2C)C2C[C@H]3C(C(C)=O)=COC[C@H]3[C@H](C1)N2C" is 8.32 µM

Value of TGI reported for the compound "O=[N+]([O-])c1ccc(-c2cc(O)c3nc4ccccc4n3c2)cc1" is > 100 µM

Value of TGI reported for the compound "O=C(COc1ccc(/C=C2\COc3ccccc3C2=O)cc1)Nc1nccs1" is > 100 µM

* * *

Consider the following molecules; for each one, report its TGI.
Test system: KM12 colon
Assay Procedure: NCI tumour cell line growth inhibition, 48 h

Value of TGI reported for the molecule "Cc1nc2c(c(=O)[nH]1)S/C(=C(/C#N)c1nc3ccccc3[nH]1)N2c1ccccc1" is > 100 µM

Value of TGI reported for the molecule OC(c1cc(-c2cccc(Cl)c2)nc2ccccc12)C1CCCCN1 (configuration not stated) is 3.2 µM

Value of TGI reported for the molecule "N#Cc1cnc(-n2[nH]c3c(c2=O)CCCC3)[nH]c1=O" is > 100 µM

Value of TGI reported for the molecule "COC(=O)[C@@H](C)C[C@H](Cc1cn(C)c2ccccc12)NC(=O)c1csc([C@@H](C[C@H](C(C)C)N(C)C(=O)[C@@H](NC(=O)[C@H]2CCCCN2C)C(C)C)OC(C)=O)n1" is > 16.7 µM

Value of TGI reported for the molecule "CCOc1ccc(N/C(=C(/C(Cl)=C(/Cl)Nc2ccccc2)[N+](=O)[O-])n2nnc3ccccc32)cc1" is > 100 µM

Value of TGI reported for the molecule "S=C(NNC1=NCCCCN1)Nc1ccc(Cl)cc1" is > 100 µM

Value of TGI reported for the molecule C=CC(=O)NCCSCCCOC1(C(=O)O)CC(O)C(NC(C)=O)C(C(O)C(O)CO)O1 (configuration not stated) is > 100 µM

Value of TGI reported for the molecule "COc1cc(C(=O)/C=C/c2ccc(OCCSCCCCCCCCCCSCCOc3ccc(/C=C/C(=O)c4cc(OC)c(OC)c(OC)c4)cc3)cc2)cc(OC)c1OC" is > 100 µM

Value of TGI reported for the molecule Nc1nc2c(ncn2C2CCC(CO)O2)c(=O)n1C(=O)c1ccccc1 (configuration not stated) is > 100 µM

Value of TGI reported for the molecule "CCOC(=O)c1ccccc1OC(=O)NNc1ccccc1" is > 56.4 µM

Value of TGI reported for the molecule "CCN(CC)CCC(=O)c1ccc(Sc2ccc(F)cc2)cc1" is 30.6 µM

Value of TGI reported for the molecule "COc1cccc2ccc(C(=O)c3ccccc3)nc12" is > 100 µM

Value of TGI reported for the molecule CC[C@@H]1[C@@H](C)O[C@@](O)([C@@H](C)[C@H](O)[C@H](C)[C@H]2OC(=O)/C=C/C=C/[C@H](C)[C@@H]([C@@H](C)[C@@H](O)[C@H](C)[C@@]3(O)C[C@@H](O[C@H]4C[C@@H](O)[C@H](O)C(C)O4)[C@H](CC)[C@@H](C)O3)OC(=O)/C=C/C=C/[C@@H]2C)C[C@H]1O[C@@H]1C[C@@H](O)[C@H](O)C(C)O1 (some centres not stated) is 0.413 µM

Value of TGI reported for the molecule "Nc1ccccc1NC(=O)c1ccc(CNc2nccc(-c3cccnc3)n2)cc1" is 14.1 µM

Value of TGI reported for the molecule "Cc1cc(Cl)cc2c(N=Nc3ccc(S(N)(=O)=O)cc3)c(O)[nH]c12" is > 25 µM

Value of TGI reported for the molecule "CSC1=Nc2c(c(C)c(-c3ccccc3)n2CCCN2CCCCC2)C2=NC(=O)C[C@H](C)N12" is 12.5 µM

Value of TGI reported for the molecule "Cc1ccc(/C=N/n2c(Cc3ccccc3)n[nH]c2=O)cc1" is > 100 µM

* * *

Consider the following molecules; for each one, report its TGI.
System: OVCAR-5 ovarian
Assay Procedure: NCI tumour cell line growth inhibition, 48 h

Value of TGI reported for the molecule "CC(=O)Nc1ccc(NS(=O)(=O)c2ccc3nc(C)n(NS(=O)(=O)c4ccc(NC(C)=O)cc4)c(=O)c3c2)cc1" is > 100 µM

Value of TGI reported for the molecule "Cc1ccc(S(=O)(=O)N2CCN(S(=O)(=O)c3ccc(C)cc3)CCN(S(=O)(=O)c3ccc(C)cc3)Cc3cc(C#N)c(C#N)cc3CN(S(=O)(=O)c3ccc(C)cc3)CC2)cc1" is > 100 µM

Value of TGI reported for the molecule "CC(C)(C)n1c(=O)n2n(c1=O)Cc1cccc3cccc(c13)C2" is 35.1 µM

Value of TGI reported for the molecule "O=c1ccn(CC2(CO)CCCC2)c(=O)[nH]1" is > 100 µM

Value of TGI reported for the molecule "O=C(Cn1cc(-c2ccccc2)nn1)NC1CCCCC1" is > 100 µM

Value of TGI reported for the molecule "CN(C)c1ccc(/C=C/c2ccnc3c(O)cccc23)cc1" is > 100 µM

Value of TGI reported for the molecule COC(=O)C(Cc1nc2ccccc2[nH]c1=O)/C(=N\NC(C)(C)C)C(=O)Nc1c(C)cc(Br)cc1C (centres undefined) is > 100 µM

Value of TGI reported for the molecule Cc1cc([N+](=O)[O-])ccc1NC(=O)C(=O)C(C(=O)c1ccccc1-c1ccccc1)C1OC(=O)c2ccccc21 (centres undefined) is 28.9 µM

Value of TGI reported for the molecule "NC(=S)N/N=C/c1nccc2ccccc12" is > 100 µM

* * *

Tested on: T-47D breast
Assay Procedure: NCI tumour cell line growth inhibition, 48 h
*1 amine or outer side, *2 acyl side, *3 side chain or, on linkers, in order; H or OH if unused. Where a SMILES comes first, the peptide text is derived from it. [ ]: non-standard residue; d: D form. The star is where a group is joined. ξ: configuration not given here. X27 = O=C([C@H]1CCC[C@H]1N[*:1])[*:2]; ξW = NC(Cc1c[nH]c2ccccc12)C(=O)O; ξF = NC(Cc1ccccc1)C(=O)O; Boc = CC(C)(C)OC(=O)*; ξK = NCCCCC(N)C(=O)O; ξT = CC(O)C(N)C(=O)O; tBu = CC(C)(C)*
Measurement Label: TGI

Value of TGI reported for the molecule "Cc1cc(Cl)cc2c(N=Nc3ccc(S(N)(=O)=O)cc3)c(O)[nH]c12" is > 25 µM

Value of TGI reported for the molecule "N#Cc1cnc(-n2[nH]c3c(c2=O)CCCC3)[nH]c1=O" is > 100 µM

Value of TGI reported for the molecule "CC(C)(C)c1cc(-c2cc(C(C)(C)C)[nH]n2)n[nH]1" is > 100 µM

Value of TGI reported for the molecule "Cn1c(NNc2ccccc2)cc(=O)[nH]c1=O" is > 100 µM

Value of TGI reported for the molecule "NC(=O)C(=O)c1ncn(Cc2ccccc2)c1N" is > 100 µM

Value of TGI reported for the molecule CC(OC(C)(C)C)C1NC(=O)C(CCCCNC(=O)OC(C)(C)C)NC(=O)C(Cc2c[nH]c3ccccc23)NC(=O)C(Cc2ccccc2)NC(=O)[C@H]2CCC[C@H]2NC(=O)C(Cc2ccccc2)NC1=O (some centres not stated) (cyclo([X27][ξF][ξW][ξK](Boc)[ξT](tBu)[ξF])) is > 100 µM

Value of TGI reported for the molecule "Nc1ccc2nc3c(nc2c1)C(=O)c1ccccc1-3" is > 100 µM

Value of TGI reported for the molecule "CSc1ccc(-c2ccccc(=O)c2O)cc1" is > 100 µM

Value of TGI reported for the molecule CCN1CCCC(C#N)(c2ccccc2)CC1 (configuration not stated) is > 100 µM

Value of TGI reported for the molecule "Cn1cc(C2=C(c3ccccc3[N+](=O)[O-])C(=O)NC2=O)c2ccccc21" is 23.5 µM

Value of TGI reported for the molecule "CCN(CC)C(=O)Cn1c(-c2ccccc2)cc2ccccc21" is > 100 µM

Value of TGI reported for the molecule "CC1=NN(c2nc(N)nc(CBr)n2)C(C)(C)C1" is 18 µM
